target: human BCL6 BTB domain (Trx-6×His-BCL6) / BCOR-AF633 peptide (Homo sapiens (Human), UniProt P41182); test: HTRF assay; format: binding; details: 1 nM Trx-6×His-BCL6, 300 nM BCOR-AF633 peptide, 2 hours incubation
MEASURED ENDPOINT: HTRF avg pIC50 (1 nM)

Looking up `Cn1c(=O)c2c(c3cc(Nc4ccncc4Cl)ccc31)N[C@@H](C1CC1)C(F)(F)CO2` , I found its HTRF avg pIC50 (1 nM) recorded as 7.99

Looking up `Cn1c(=O)c2c(c3cc(Nc4nc(N5C6CCC5COC6)ncc4Cl)ccc31)N[C@@H](C1CC1)CCO2` , I found its HTRF avg pIC50 (1 nM) recorded as 7.49

Looking up CC1COc2c(c3cc(Nc4ccnc(Cl)c4C#N)ccc3n(C)c2=O)N1 (stereo not shown) , I found its HTRF avg pIC50 (1 nM) recorded as 5.91

Looking up `C[C@H]1COC(=O)c2c(c3cc(Nc4nc(N5CCC(C(=O)N(C)C)CC5)ncc4Cl)ccc3n(C)c2=O)N1` , I found its HTRF avg pIC50 (1 nM) recorded as 6.78

Looking up `C[C@@H]1C[C@H](C)CN(c2ncc(Cl)c(Nc3ccc4c(c3)c3c(c(=O)n4C)C(=O)OC[C@H](C)N3)n2)C1` , I found its HTRF avg pIC50 (1 nM) recorded as 6.55

Looking up `C[C@H]1CCOc2c(c3cc(Nc4nc(N5CCOCC5)ncc4Cl)ccc3n(C)c2=O)N1` , I found its HTRF avg pIC50 (1 nM) recorded as 7.01

Looking up Cn1c(=O)c2c(c3cc(Nc4nc(N5C6CCC5CS(=O)(=O)C6)ncc4Cl)ccc31)N[C@@H](C1CC1)C(F)(F)CO2 [Example 12w] , I found its HTRF avg pIC50 (1 nM) recorded as 8.73
